Parameter: Retention_time. Scope: all listed entries.
# Protocol description: Retention time of the compound by UPLC method
# Format: physicochemical
Express it in min; write the number only.

See these solved cases before continuing.
>  <Substance>
H-VKRFKKFFRKLKKEV-NH2

>  <Value reported>
3.41

$$$$
>  <Substance>
H-VKRFKKFFRKLKKQV-NH2

>  <Value reported>
3.31

$$$$
>  <Substance>
H-VKRFKKFFRKLKKSV-NH2

>  <Value reported>
3.38

$$$$

## Input State the recorded Retention_time for this entry: H-VKRFKKFFRKLKKGV-NH2
## Output 3.25

## Input State the recorded Retention_time for this entry: H-VKRFKKFFRKLKKDV-NH2
## Output 3.38

## Input State the recorded Retention_time for this entry: H-VKRFKKFFRKLKKTV-NH2
## Output 3.44

## Input State the recorded Retention_time for this entry: H-VKRFKKFFRKLKKFV-NH2
## Output 3.74

## Input State the recorded Retention_time for this entry: H-VKRFKKFFRKLKKLV-NH2
## Output 3.84

## Input State the recorded Retention_time for this entry: H-VKRFKKFFRKLKKKV-NH2
## Output 3.22

## Input State the recorded Retention_time for this entry: H-VKRFKKFFRKLKKVV-NH2
## Output 3.69

## Input State the recorded Retention_time for this entry: H-VKRFKKFFRKLKKAV-NH2
## Output 3.48

## Input State the recorded Retention_time for this entry: H-VKRFKKFFRKLKKRV-NH2
## Output 3.13

## Input State the recorded Retention_time for this entry: H-VKRFKKFFRKLKKHV-NH2
## Output 3.28
